Known Ki of a selection of compounds
Molecular target: UniProt:P10826
Sequence (P10826 whole entry, species assumed): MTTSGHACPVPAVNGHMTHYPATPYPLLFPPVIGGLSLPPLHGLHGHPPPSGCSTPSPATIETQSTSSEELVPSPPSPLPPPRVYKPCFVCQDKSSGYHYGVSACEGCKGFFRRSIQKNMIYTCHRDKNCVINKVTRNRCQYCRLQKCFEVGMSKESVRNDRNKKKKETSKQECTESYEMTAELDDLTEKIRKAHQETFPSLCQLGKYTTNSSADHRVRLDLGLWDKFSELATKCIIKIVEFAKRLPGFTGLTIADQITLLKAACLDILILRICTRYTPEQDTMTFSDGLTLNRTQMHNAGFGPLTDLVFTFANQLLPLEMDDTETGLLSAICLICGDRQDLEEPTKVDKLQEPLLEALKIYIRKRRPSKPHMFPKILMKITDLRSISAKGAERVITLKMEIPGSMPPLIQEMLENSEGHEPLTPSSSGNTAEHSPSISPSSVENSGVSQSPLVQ
Assay: ligand binding assay, RARβ
Conditions: second entry of cell, read-out: RAR Bind. Ki (nM) β

See these solved cases before continuing.
CC(/C=C/[C@@H]1C[C@]1(C)c1cc(C)c2c(c1)C(C)(C)CO2)=C\C(=O)O [Compound 4] :: > 10000 nM
CCCCC(O)CCc1cc([C@@]2(C)C[C@H]2/C=C/C(C)=C/C(=O)O)cc2c1OCC2(C)C (stereo partly shown) [Compound 38] :: > 10000 nM
CC(/C=C/[C@@H]1C[C@]1(C)c1cc(CC(C)(C)C)c2c(c1)C(C)(C)CO2)=C\C(=O)O [Compound 12] :: 9510 nM

Next compound, please.
# input compound: CC(/C=C/[C@@H]1C[C@]1(C)c1cc(-c2ccccc2)c2c(c1)C(C)(C)CO2)=C\C(=O)O [Compound 22] ; wanted: its Ki
> 10000 nM
